Where these numbers come from: PubChem BioAssay

Please respond with reported z-score for every item in the list.
Assay: inhibition of PAO1 biofilm formation – strain PAO1, LB-PBS medium, absorbance 600 nm, primary screen (AID 1176)
Conditions: P. aeruginosa PAO1 growth/biofilm, A600, 12 h; higher = more signal
Answers are plain numbers.

Lab note: each compound below needs its z-score filled in.
1. CN(C)CCCN1C(=O)[C@@]2(Cc3ccccc31)c1ccccc1C(=O)N(Cc1ccccc1)[C@H]2c1ccc(CO)cc1
2. C=C(CCCC)/C(=C/C[C@@H](OC(=O)c1ccncc1)c1ccccc1OCCO)c1cc(C(=O)OC)ccc1OC
3. C=CC[C@]1(C(=O)N2CCOCC2)N=C(c2ccc(OCCCO)cc2)O[C@H]1c1ccccc1CN=[N+]=[N-]

A)
1: 0.587; 2: 0.506; 3: -0.497

Lab note: each compound below needs its z-score filled in.
1. COCCCNC(=O)[C@@H]1c2ccccc2C(=O)N(Cc2cc(F)cc(C(F)(F)F)c2)[C@H]1c1ccc(CO)cc1
2. CCN(CC)c1ccc(N2CC=CC34O[C@@H]5/C=C\CCCOC(=O)C5[C@H]3C(=O)N(CCCCCCO)[C@@H]4C2=O)cc1 (some centres undefined)
3. CC(C)CNC(=O)[C@@]1(c2ccc([N+](=O)[O-])cc2)CC(=O)N(C(C)C)[C@@H]1c1ccc(CO)cc1
4. CO[C@H]1O[C@H](CO)[C@@H](OC(=O)Nc2cccc(F)c2)[C@H](OC(=O)Nc2ccc3c(c2)OCO3)[C@H]1OC(=O)Nc1ccc2c(c1)OCO2

A)
[0.36, -0.869, -0.301, 1.38]

====

System: XIP peptide (Xip251-270) binding
Experiment: XIP fragment 251-270 binding compounds – biochemical, small-molecule microarray, fluorescence 635/667 nm, 0.1 µg/mL protein, primary screen (AID 1182)
Details: fluorescent protein binding, 635 nm, higher = more signal, called active from +8 up or from −8 down
composite z-score vs 0.3: at or above is condition met, below is condition not met.

Take a look at these entries with their results.
CCCCC(O)C1C=CC2C(=O)N(Cc3ccccc3)C(=O)C2N1n1cnnc1 (configuration not stated): condition met
COC(=O)C(CC#Cc1ccc2c(c1)[C@]1(C(=O)N2)[C@H](c2ccc(O)cc2)N2[C@H](c3ccccc3)[C@H](c3ccccc3)OC(=O)[C@H]2[C@@H]1C(=O)O)C(=O)OC: condition not met
C[C@@H]1ON(c2ccccc2)[C@H](c2ccccc2)[C@H]1C(=O)N1C(=O)OC[C@H]1Cc1ccccc1: condition not met

Q) For this compound, is measured composite z-score 0.3 or higher? O=C1O[C@@H](c2ccccc2)[C@@H](c2ccccc2)N2[C@@H](c3ccc(O)cc3)[C@]3(C(=O)Nc4ccc(C#CC5(O)CCCCCC5)cc43)[C@@H](C(=O)N3CCN(c4ncccn4)CC3)[C@H]12
A) condition met

Q) For this compound, is measured composite z-score 0.3 or higher? C=C(CCCC)/C(=C/C[C@@H](OC(=O)c1ccncc1)c1ccccc1OCCO)c1cc(C(=O)OC)ccc1OC
A) condition met

Q) For this compound, is measured composite z-score 0.3 or higher? COC(=O)C(CC#Cc1ccc2c(c1)[C@]1(C(=O)N2)[C@H](c2ccc(OCCO)cc2)N2[C@H](c3ccccc3)[C@H](c3ccccc3)OC(=O)[C@H]2[C@@H]1C(=O)O)C(=O)OC
A) condition met

Q) For this compound, is measured composite z-score 0.3 or higher? CO[C@H]1O[C@H](CO)[C@@H](OC(=O)c2ccc(Br)cc2)[C@@H]2OC(=O)[C@H](Cc3cccc(Br)c3)C/C=C/C[C@@H](Cc3cccc(Br)c3)C(=O)O[C@@H]12
A) condition met

====

Assay: JC-1 mitochondrial potential readout, lung cancer cells – cell-based, A549, JC-1 fluorescence, basal, 24 h, 100 nL, profiling panel (AID 1138);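 further: A549 lung adenocarcinoma cells under basal conditions with no added stimulus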
Settings: higher = more signal
endpoint label: z-score
One number for each entry.

Look over these answered cases.
C[C@H]1NC(=O)C([C@@H](C)OCc2ccccc2)NC(=O)[C@@]23C(=O)N[C@@H](Cc4ccccc4)C2[C@H](C)[C@@]2(C)O[C@H]2C3/C=C/CC/C=C/CNC1=O (stereo partly drawn): -0.198
COC(=O)[C@@]1(Cc2ccc(OC)cc2)[C@H]2c3cc(C(=O)N(C)C)n(CCF)c3C[C@H]2CN1C(=O)c1ccccc1: 0.486
Cc1ccc(S[C@]2(C(=O)O)CC(=O)N(Cc3ccccc3C(F)(F)F)[C@@H]2c2ccc(CO)cc2)cc1: 0.391

Lab note: each molecule below needs its z-score filled in.
1. O=C1C2C=CC(C(O)c3ccccn3)N(Nc3ccccc3)C2C(=O)N1c1ccccc1 (stereo not drawn)
2. COC(=O)[C@]1(Cc2ccccc2CN=[N+]=[N-])N=C(c2ccc(OCCCO)cc2)O[C@@H]1c1ccccc1CN=[N+]=[N-]
3. Cc1ccc(C(C)CC(O)C2C=CC3C(=O)N(Cc4ccccc4)C(=O)C3N2n2cnnc2)o1 (stereo not drawn)
4. COc1ccccc1CN1C(=O)c2ccccc2[C@@H](C(=O)NCC(C)C)[C@@H]1c1ccc(CO)cc1
5. O=C1C[C@@](C(=O)O)(c2ccc([N+](=O)[O-])cc2)[C@@H](c2ccc(CO)cc2)N1CC12CC3CC(CC(C3)C1)C2

A)
[0.327, 1.02, -1.49, 0.163, 2.19]

====

Assay: plasmodial surface anion channel blockers, osmotic lysis – cell-based, P. falciparum Indochina, OD700, 18 h, primary screen (AID 1157)
Details: P. falciparum Indochina infected erythrocytes, osmotic lysis OD700, 18 h; higher = more signal, called active from +8 up or from −8 down
z-score vs -0.1: at or above is Fulfilled, below is Not fulfilled.

COc1cc2c(cc1OC)CN(C(=O)[C@@H]1[C@H]3C(=O)O[C@H](c4ccccc4)[C@H](c4ccccc4)N3[C@H](c3ccc(O)cc3)[C@@]13C(=O)Nc1ccc(C#CCNC(N)=O)cc13)CC2: Fulfilled
COCCCNC(=O)[C@]1(CCS(=O)(=O)c2ccccc2)N=C(c2ccc(OCCCO)cc2)O[C@@H]1c1ccccc1: Fulfilled
COCCCNC(=O)[C@]1(Cc2ccccc2)N=C(c2ccc(OCCCO)cc2)O[C@@H]1c1ccccc1N=[N+]=[N-]: Fulfilled

Q) For this compound, is measured z-score -0.1 or higher? CC1C=C(CCCO)C=C(C(=O)OCCS(C)(=O)=O)C(C(=O)OCCS(C)(=O)=O)=CN1Cc1cccc(OC(F)(F)F)c1 (stereo unspecified)
A) Fulfilled

Q) For this compound, is measured z-score -0.1 or higher? O=C1C[C@@](C(=O)NCc2ccccc2)(c2ccc([N+](=O)[O-])cc2)[C@@H](c2ccc(CO)cc2I)N1C1CCCCC1
A) Fulfilled

Q) For this compound, is measured z-score -0.1 or higher? C[C@H]1ON(c2ccccc2)[C@@H](c2ccccc2)[C@@H]1C(=O)N1C(=O)OC[C@@H]1c1ccccc1
A) Fulfilled

Q) For this compound, is measured z-score -0.1 or higher? O=[N+]([O-])c1ccc(C[n+]2ccc(-c3ccc(CO)cc3)cc2)o1
A) Not fulfilled

Q) For this compound, is measured z-score -0.1 or higher? CCOC(=O)C[C@H]1[C@H](OC(=O)Cc2ccc3c(c2)OCO3)[C@@H](NC(=O)c2ccccc2)c2cc(OCCCO)ccc2N1C(=O)c1ccc2ccccc2n1
A) Not fulfilled

====

Test: S. pombe growth modifiers, basal conditions – strain 972, OD600, 24 h, no modulator, primary screen (AID 1090);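 further: basal condition with compound alone and no growth modifier present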
Conditions: S. pombe 972 growth, higher = more signal, called active from +8 up or from −8 down
endpoint label: z-score
Give bare numbers.

CCOC(=O)C[C@H]1[C@H](OC(=O)c2ccc(C(=O)c3ccccc3)cc2)[C@@H](NC(=O)C2CCCCC2)c2cc(OCCCO)ccc2N1C(=O)Cc1ccc(OC)cc1: 0.0425
COc1ccc(C#Cc2ccc3c(c2)[C@]2(C(=O)N3)[C@H](C(N)=O)[C@H]3C(=O)O[C@H](c4ccccc4)[C@H](c4ccccc4)N3[C@@H]2c2ccc(O)cc2)cc1: 0.107
CN(C)CCCCCCNC(=O)[C@@H]1C[C@@H]2C(=O)NCC(=O)N2[C@@H]1c1ccc(O)cc1: -0.639

Switching to the query record.
Q) Output z-score of N#Cc1ccc(NN2C(C(O)c3ccccc3)C=CC3C(=O)N(c4ccccc4)C(=O)C32)cc1 (centres undefined)
A) 0.836

====

Target: Neurogenic locus notch homolog protein 3 (Homo sapiens)
Experiment: small molecules binding NOTCH3 protein – biochemical, 635/667 nm fluorescence, primary screen (AID 1096)
Details: small-molecule microarray, 635 nm fluorescence, higher = more signal
Please respond with reported composite z-score for every item in the list.
Answers are plain numbers.

Look over these answered cases.
COc1ccc(CCNC(=O)[C@@H]2c3ccccc3C(=O)N(Cc3ccccc3C(F)(F)F)[C@H]2c2ccc(CO)cc2)cc1: -0.0818
C#CCNS(=O)(=O)N(C)C: 0.579
COCCOC(=O)N1C(=O)[C@@]2(c3cc(C#CCCO)ccc31)[C@H](C(=O)NC[C@H](O)c1ccccc1)[C@H]1C(=O)O[C@H](c3ccccc3)[C@H](c3ccccc3)N1[C@@H]2c1ccccc1OCCO: 1.07
C=C[C@@H](O)[C@H]1CC(c2ccccc2)=NO1: -0.872

Q) # return composite z-score for COCCOC(=O)N1C(=O)[C@@]2(c3cc(C#CCNC(N)=O)ccc31)[C@H](C(=O)N1CCCCCCC1)[C@H]1C(=O)O[C@H](c3ccccc3)[C@H](c3ccccc3)N1[C@@H]2c1ccc(OCCO)cc1 , test system: Neurogenic locus notch homolog protein 3 (Homo sapiens)
A) 1.07
